# tested-system: Plasminogen (Homo sapiens, UniProt P00747)
# Sequence (P00747 97-580 limits assumed): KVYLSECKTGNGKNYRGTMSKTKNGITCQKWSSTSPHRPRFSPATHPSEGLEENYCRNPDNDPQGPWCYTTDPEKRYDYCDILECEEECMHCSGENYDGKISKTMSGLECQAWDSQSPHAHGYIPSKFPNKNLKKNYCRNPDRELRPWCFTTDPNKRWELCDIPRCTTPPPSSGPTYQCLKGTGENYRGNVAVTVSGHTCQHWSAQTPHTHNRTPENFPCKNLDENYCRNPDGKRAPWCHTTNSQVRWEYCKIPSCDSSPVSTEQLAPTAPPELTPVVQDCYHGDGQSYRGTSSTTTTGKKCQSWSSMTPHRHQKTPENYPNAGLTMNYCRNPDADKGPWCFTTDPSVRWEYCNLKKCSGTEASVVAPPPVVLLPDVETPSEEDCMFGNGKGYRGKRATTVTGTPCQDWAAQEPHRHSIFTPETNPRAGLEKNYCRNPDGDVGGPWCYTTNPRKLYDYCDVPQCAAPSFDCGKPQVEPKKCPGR
# Sequence (P00747 581-810 limits assumed): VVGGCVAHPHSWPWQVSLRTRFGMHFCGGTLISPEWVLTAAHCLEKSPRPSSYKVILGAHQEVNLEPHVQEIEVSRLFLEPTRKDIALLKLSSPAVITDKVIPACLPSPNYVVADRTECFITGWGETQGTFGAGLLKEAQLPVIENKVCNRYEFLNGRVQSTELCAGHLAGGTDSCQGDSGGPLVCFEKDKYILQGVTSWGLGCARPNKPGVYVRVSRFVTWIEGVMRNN
# assay-method-text: Activities on Plasmin (PAR4): In a typical test, 100 μl of reaction medium contains the buffer, 1 μl of recombinant enzyme, 1 μl of substrate (PAR4) and 1 μl of the compound tested at 10 μM (in the control, 1 μl of DMSO). In each well, the inhibitor is deposited in the presence of the enzyme-buffer mixture for preincubation for 15 minutes at 37° C. The enzymatic reaction is then triggered by …
# Description: Activities on Plasmin (PAR4): In a typical test, 100 μl of reaction medium contains the buffer, 1 μl of recombinant enzyme, 1 μl of substrate (PAR4) and 1 μl of the compound tested at 10 μM (in the control, 1 μl of DMSO). In each well, the inhibitor is deposited in the presence of the enzyme-buffer mixture for preincubation for 15 minutes at 37° C. The enzymatic reaction is then triggered by adding the buffer-substrate mixture (100 μM). The release of the 7-amino-4-methylcoumarin fluorescent group (AMC, λex=360 nm, λem=460 nm) following the hydrolysis of the substrate catalyzed by the enzyme is monitored for 30 minutes at 37° C. using a FLUOstar spectrofluorimeter.
pIC50: −log10 of the molar value.
Listing: pIC50 of selected compounds
observed-property: pIC50

structure_smiles_string=NCc1ccc(NC(=O)c2cc3ccccc3cc2O)cc1 number=5.49
structure_smiles_string=NCc1ccc(NC(=O)c2ccc3ccccc3c2O)cc1 number=5.31

* * *

# key: entry, value: IC50
# tested-system: Kallikrein-6 (Homo sapiens, UniProt Q92876)
# assay-method-text: Activities on KLK6 (MBP3): In a typical test, 100 μl of reaction medium contains the buffer, 1 μl of recombinant enzyme, 1 μl of substrate (MBP3) and 1 μl of the compound tested at 10 μM (in the control, 1 μl of DMSO). In each well, the inhibitor is deposited in the presence of the enzyme-buffer mixture for preincubation for 15 minutes at 37° C. The enzymatic reaction is then triggered by adding …
# Description: Activities on KLK6 (MBP3): In a typical test, 100 μl of reaction medium contains the buffer, 1 μl of recombinant enzyme, 1 μl of substrate (MBP3) and 1 μl of the compound tested at 10 μM (in the control, 1 μl of DMSO). In each well, the inhibitor is deposited in the presence of the enzyme-buffer mixture for preincubation for 15 minutes at 37° C. The enzymatic reaction is then triggered by adding the buffer-substrate mixture (100 μM). The release of the 7-amino-4-methylcoumarin fluorescent group (AMC, λex=360 nm, λem=460 nm) following the hydrolysis of the substrate catalyzed by the enzyme is monitored for 30 minutes at 37° C. using a FLUOstar spectrofluorimeter.
observed-property: IC50 (µM)

structure_smiles_string=NCc1ccc(NC(=O)c2ccc3ccccc3c2O)cc1 units_label=µM number=7.89
structure_smiles_string=Cc1ccc(C(=O)Nc2ccc(CN)cc2)c(O)c1 units_label=µM number=8.34

* * *

# tested-system: Plasminogen (Homo sapiens)
# assay-method-text: Activities on Plasmin (Boc-QAR-AMC): In a typical test, 100 μl of reaction medium contains the buffer, 1 μl of recombinant enzyme, 1 μl of substrate (Boc-QAR-AMC) and 1 μl of the compound tested at 10 μM (in the control, 1 μl of DMSO). In each well, the inhibitor is deposited in the presence of the enzyme-buffer mixture for preincubation for 15 minutes at 37° C. The enzymatic reaction is then …
# Description: Activities on Plasmin (Boc-QAR-AMC): In a typical test, 100 μl of reaction medium contains the buffer, 1 μl of recombinant enzyme, 1 μl of substrate (Boc-QAR-AMC) and 1 μl of the compound tested at 10 μM (in the control, 1 μl of DMSO). In each well, the inhibitor is deposited in the presence of the enzyme-buffer mixture for preincubation for 15 minutes at 37° C. The enzymatic reaction is then triggered by adding the buffer-substrate mixture (100 μM). The release of the 7-amino-4-methylcoumarin fluorescent group (AMC, λex=360 nm, λem=460 nm) following the hydrolysis of the substrate catalyzed by the enzyme is monitored for 30 minutes at 37° C. using a FLUOstar spectrofluorimeter.
# IC50 per entry
observed-property: IC50

structure_smiles_string=NCc1ccc(NC(=O)c2cc3ccccc3cc2O)cc1 observed_property=IC50 result="3.75 µM"
structure_smiles_string=COc1ccc2c(O)c(C(=O)Nc3ccc(CN)cc3)ccc2c1 observed_property=IC50 result="2.72 µM"
structure_smiles_string=Cc1ccc(C(=O)Nc2ccc(CN)cc2)c(O)c1 observed_property=IC50 result="12.5 µM"

* * *

This section presents compounds with their documented IC50 values.
# tested-system: Kallikrein-6 (Homo sapiens)
# assay-method-text: Activities on KLK6 (PAR2): In a typical test, 100 μl of reaction medium contains the buffer, 1 μl of recombinant enzyme, 1 μl of substrate (PAR2) and 1 μl of the compound tested at 10 μM (in the control, 1 μl of DMSO). In each well, the inhibitor is deposited in the presence of the enzyme-buffer mixture for preincubation for 15 minutes at 37° C. The enzymatic reaction is then triggered by adding …
# Description: Activities on KLK6 (PAR2): In a typical test, 100 μl of reaction medium contains the buffer, 1 μl of recombinant enzyme, 1 μl of substrate (PAR2) and 1 μl of the compound tested at 10 μM (in the control, 1 μl of DMSO). In each well, the inhibitor is deposited in the presence of the enzyme-buffer mixture for preincubation for 15 minutes at 37° C. The enzymatic reaction is then triggered by adding the buffer-substrate mixture (100 μM). The release of the 7-amino-4-methylcoumarin fluorescent group (AMC, λex=360 nm, λem=460 nm) following the hydrolysis of the substrate catalyzed by the enzyme is monitored for 30 minutes at 37° C. using a FLUOstar spectrofluorimeter.
observed-property: IC50 (µM)

structure_smiles_string=Cc1ccc(C(=O)Nc2ccc(CN)cc2)c(O)c1 observed_property=IC50 units_label=µM number=5.06
structure_smiles_string=NCc1ccc(NC(=O)c2ccc3ccccc3c2O)cc1 observed_property=IC50 units_label=µM number=2.63

* * *

# tested-system: Kallikrein-6 (Homo sapiens)
# assay-method-text: Activities on KLK6 (Boc-QAR-AMC): In a typical test, 100 μl of reaction medium contains the buffer, 1 μl of recombinant enzyme, 1 μl of substrate (Boc-QAR-AMC) and 1 μl of the compound tested at 10 μM (in the control, 1 μl of DMSO). In each well, the inhibitor is deposited in the presence of the enzyme-buffer mixture for preincubation for 15 minutes at 37° C. The enzymatic reaction is then …
# Description: Activities on KLK6 (Boc-QAR-AMC): In a typical test, 100 μl of reaction medium contains the buffer, 1 μl of recombinant enzyme, 1 μl of substrate (Boc-QAR-AMC) and 1 μl of the compound tested at 10 μM (in the control, 1 μl of DMSO). In each well, the inhibitor is deposited in the presence of the enzyme-buffer mixture for preincubation for 15 minutes at 37° C. The enzymatic reaction is then triggered by adding the buffer-substrate mixture (100 μM). The release of the 7-amino-4-methylcoumarin fluorescent group (AMC, λex=360 nm, λem=460 nm) following the hydrolysis of the substrate catalyzed by the enzyme is monitored for 30 minutes at 37° C. using a FLUOstar spectrofluorimeter.
pKi: −log10 of the molar value.
observed-property: pKi

structure_smiles_string=Cc1ccc(C(=O)Nc2ccc(CN)cc2)c(O)c1 number=5.72
structure_smiles_string=NCc1ccc(NC(=O)c2ccc3ccccc3c2O)cc1 number=5.65
structure_smiles_string=CC(C)c1ccc(C(=O)Nc2ccc(CN)cc2)c(O)c1 number=5.76
